# TESTED_TARGET: Metabotropic glutamate receptor 5 (Homo sapiens, UniProt P41594)
# Sequence (P41594 21-1212 limits assumed): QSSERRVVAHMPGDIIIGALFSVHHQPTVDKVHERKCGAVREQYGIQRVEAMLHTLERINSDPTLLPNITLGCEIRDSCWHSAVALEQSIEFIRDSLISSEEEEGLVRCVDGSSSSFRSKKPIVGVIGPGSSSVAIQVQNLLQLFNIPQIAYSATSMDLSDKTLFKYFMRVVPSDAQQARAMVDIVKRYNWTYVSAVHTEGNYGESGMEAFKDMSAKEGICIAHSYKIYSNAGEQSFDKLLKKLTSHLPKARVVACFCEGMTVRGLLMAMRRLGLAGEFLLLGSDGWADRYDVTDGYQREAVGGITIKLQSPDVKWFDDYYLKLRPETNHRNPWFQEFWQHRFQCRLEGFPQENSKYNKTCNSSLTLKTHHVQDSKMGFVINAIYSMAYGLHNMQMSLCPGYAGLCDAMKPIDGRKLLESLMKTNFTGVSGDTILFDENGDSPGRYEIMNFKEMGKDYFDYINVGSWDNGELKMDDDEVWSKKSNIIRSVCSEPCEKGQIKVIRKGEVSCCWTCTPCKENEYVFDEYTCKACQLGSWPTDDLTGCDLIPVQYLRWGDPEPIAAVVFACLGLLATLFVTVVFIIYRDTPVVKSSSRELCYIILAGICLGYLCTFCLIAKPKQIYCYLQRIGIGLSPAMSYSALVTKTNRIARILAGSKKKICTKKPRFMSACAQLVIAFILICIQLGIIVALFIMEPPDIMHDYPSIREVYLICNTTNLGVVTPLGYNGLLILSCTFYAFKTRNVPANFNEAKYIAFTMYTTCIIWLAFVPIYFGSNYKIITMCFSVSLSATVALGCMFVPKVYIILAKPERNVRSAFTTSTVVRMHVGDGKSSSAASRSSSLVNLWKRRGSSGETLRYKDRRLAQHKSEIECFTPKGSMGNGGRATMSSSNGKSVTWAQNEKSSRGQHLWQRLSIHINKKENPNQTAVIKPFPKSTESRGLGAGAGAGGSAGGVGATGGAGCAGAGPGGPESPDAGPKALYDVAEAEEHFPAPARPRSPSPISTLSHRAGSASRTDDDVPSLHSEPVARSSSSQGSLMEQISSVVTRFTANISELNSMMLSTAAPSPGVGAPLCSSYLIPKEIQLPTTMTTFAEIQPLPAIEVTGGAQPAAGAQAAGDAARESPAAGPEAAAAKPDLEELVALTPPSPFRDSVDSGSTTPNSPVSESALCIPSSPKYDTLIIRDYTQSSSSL
# TEST_DESCRIPTION: Positive allosteric modulation of human mGluR5 expressed in recombinant HEK293 cells by FLIPR assay
# Type: cell-based
MEASURED_ENDPOINT: Emax (%)
Answer in %, number only, no unit symbol.

See these solved cases before continuing.
COC1CCN(C(=O)N2CC(c3nc(-c4cccc(Cl)c4)no3)C2)CC1 | 11
O=S(=O)(c1ccc(F)cc1)N1CC(c2nc(-c3cccc(Cl)c3)no2)C1 | -7
O=C(c1ccccc1F)N1CC[C@H]1c1nc(-c2cccc(F)c2)no1 | 57
Cc1cccc(-c2noc(C3CN(S(=O)(=O)c4ccc(F)cc4)C3)n2)c1 | 6
O=C([C@H]1CC2CCC1C2)N1CC(c2nc(-c3cccc(Cl)c3)no2)C1 (stereo not given in full) | 120
O=C(c1ccc(F)cc1)N1CC(c2nc(-c3cccc(Cl)c3)no2)C1 | -12
Cc1cccc(-c2noc([C@@H]3CCN3C(=O)c3ccc(F)c(F)c3)n2)c1 | 51
O=S(=O)(c1ccc(Cl)cc1)N1CC(c2nc(-c3cccc(Cl)c3)no2)C1 | 7
CC1CCCCC1C(=O)N1CC(c2nc(-c3cccc(F)c3)no2)C1 (stereo not given) | 87

-- ask Please give the measured Emax for this compound: O=C(C1CCCCC1)N1CC(c2nc(-c3cccc(F)c3)no2)C1
-- reply 46
